experiment: gradient 5% acetonitrile 3 min, to 50% in 2 min, to 85% in 15 min, held 3 min, 100 µL/min; conditions: column: Zorbax Extend-C18 2.1 x 50 mm; eluents: water / acetonitrile, 0.1% formic acid
reported_endpoint: RP-LC retention time (s)

>>> numeric_result("CCn1c(C(=O)NCc2ccc(F)cc2)cc2sccc21")
1010
>>> numeric_result("O=C(NCCc1nc(-c2ccc3c(c2)OCO3)n[nH]1)c1ccc(F)c(Cl)c1")
743
>>> numeric_result("O=C(Cn1cnc2ccccc21)N1CCN(Cc2nc(-c3ccc(F)cc3)cs2)CC1")
586
>>> numeric_result("CC(O)(CCc1ccccc1)CNC(=O)CN1C(=O)CCC1=O (configuration not stated)")
631
>>> numeric_result("Cc1cc(C)cc(N2C(=O)CN(S(C)(=O)=O)CC2(C)C(=O)NCc2ccc(F)cc2)c1 (configuration not stated)")
827
>>> numeric_result("CC1Oc2ccc(-c3csc(NC(=O)C(C)(C)C)n3)cc2N(C)C1=O (configuration not stated)")
963
>>> numeric_result("c1coc(-c2nnc(-c3cc4ccccc4o3)o2)c1")
925
>>> numeric_result("N#CCc1cnc2ccccc2n1")
720
>>> numeric_result("CC(C)c1ccc(-c2nc3ncccn3c2NCc2ccccc2)cc1")
859
>>> numeric_result("Cc1ccc(C)c(N2CCN(C(=O)Cc3csc4nc(-c5ccc(C)c(C)c5)cn34)CC2)c1")
1120
>>> numeric_result("CCC(C)NC(=O)c1c2c(cn(-c3ccc(C)cc3)c1=O)C(=O)CC(C)(C)C2 (configuration not stated)")
1000
>>> numeric_result("Cc1cc(C)cc(NC(=O)Cn2c(N3CCOCC3)nc(C)cc2=O)c1")
711
>>> numeric_result("Cc1cccc(CNC(=O)C2CCN(S(=O)(=O)c3c(C)[nH]c(C)c3C(=O)N3CCCC3)CC2)c1")
695
>>> numeric_result("O=C(C1CCN(c2cnc3nccnc3c2)CC1)N1CCN(c2ccccc2)CC1")
718
>>> numeric_result("O=C(NC1CCN(C(=O)c2cn(-c3ccc(Cl)cc3)nn2)CC1)c1cccs1")
628
>>> numeric_result("O=C(c1cc2cc(Br)ccc2oc1=O)N1CCN(c2ccccn2)CC1")
616
>>> numeric_result("O=C(c1[nH]nc2c1CCc1ccccc1-2)N1CCC(c2noc(-c3ccccn3)n2)C1 (configuration not stated)")
776
>>> numeric_result("O=C(CCC1CCCN(S(=O)(=O)c2ccccc2)C1)N1CCN(c2ccccn2)CC1 (configuration not stated)")
657
>>> numeric_result("CC(C)c1cccc(NC(=O)C2CCN(C(=O)c3ncn4c3COC(c3ccccc3)C4)CC2)c1 (configuration not stated)")
921
>>> numeric_result("CCCOC(=O)C1=C(C)NC2=C(C(=O)C(C(=O)OC)C(C)C2)C1c1ccc(OC)cc1 (configuration not stated)")
907
>>> numeric_result("Cc1cccc(CN2C(=O)C3(CCOCC3)CC2c2nnnn2C(C)(C)C)c1 (configuration not stated)")
833
>>> numeric_result("CC(C)NC(=O)C1CCCN(C(=O)Nc2ccc(NC(=O)Nc3ccccc3)cc2)C1 (configuration not stated)")
720
>>> numeric_result("Fc1ccc(Cc2nc(-c3ccc4nncn4c3)no2)cc1")
770
>>> numeric_result("Cc1ccc(CNC(=O)Cn2ncc3c(N4CCN(c5ccccn5)CC4)ncnc32)cc1")
615
>>> numeric_result("CN(CCC#N)C(=O)Cn1nc(Cc2cccnc2)c2ccccc2c1=O")
563
>>> numeric_result("Nc1nc(N2CCOCC2)ncc1C(=O)Nc1ccccc1")
611
>>> numeric_result("CCOc1nn(CC)cc1C(=O)NCCc1c[nH]c2ccccc12")
736
>>> numeric_result("CC(=O)N1CCCC1c1nc(C2CN(S(=O)(=O)c3cccs3)C2)no1 (configuration not stated)")
703
>>> numeric_result("CN(C)c1ccc(C(=O)Nc2cnc(N3CCCC3)nc2)cc1")
702
>>> numeric_result("COc1cccc(COC(=O)C2=CN(Cc3ccccc3)S(=O)(=O)N=C2C)c1")
1090
>>> numeric_result("CS(=O)(=O)N1CCC(OC2CCN(C(=O)Cc3c[nH]c4ccccc34)CC2)CC1")
688
>>> numeric_result("Cc1nn(C)c(=O)c2cc(S(=O)(=O)NC(C)c3ccccc3)cn12 (configuration not stated)")
801

---

assay: gradient 5% acetonitrile 3 min, to 50% in 2 min, to 85% in 15 min, held 3 min, 100 µL/min; conditions: column: Zorbax Extend-C18 2.1 x 50 mm; eluents: water / acetonitrile, 0.1% formic acid
reported_endpoint: RP-LC retention time (s)

>>> numeric_result("Cc1c(Cl)cccc1-n1ccnc(NC(=O)Nc2ccc(F)cc2)c1=O")
1000
>>> numeric_result("O=C(Nc1ccc(Br)cc1F)C1CCCN(c2cnc3ccccc3n2)C1 (configuration not stated)")
1070
>>> numeric_result("Cc1ccc(S(=O)(=O)c2cnc(N3CCN(Cc4ccc5c(c4)OCO5)CC3)nc2N)cc1")
679

a. COC(=O)c1[nH]c2c(c1C)C(=O)CC(c1cccc(OC)c1)C2 (configuration not stated)
b. COCC(=O)N1CCC(N2C[C@H](O)C[C@H]2C(=O)NC2CCCCC2)CC1
INPUT: Hi team, can someone confirm which has the larger RP-LC retention time: a or b ? Thanks. Kindly give the label for the entry you pick.
OUTPUT: a

1. CCNC(=O)CC1=C2CCCCC2N(C)C1=O (configuration not stated)
2. Cc1ccc(-c2ccc(=O)n(CCc3nc(-c4ccc5c(c4)OCO5)no3)n2)cc1C
INPUT: Hi! Which is lower in terms of RP-LC retention time, the first one 1 or the second one 2 ? Refer to your chosen item by its label in the answer.
OUTPUT: 1
(1: 607 s, 2: 1020 s)

---

assay: gradient 5% acetonitrile 3 min, to 50% in 2 min, to 85% in 15 min, held 3 min, 100 µL/min; settings: column: Zorbax Extend-C18 2.1 x 50 mm; eluents: water / acetonitrile, 0.1% formic acid
reported_endpoint: RP-LC retention time (s)

>>> numeric_result("CN(C)C(=O)Oc1cc(OC(=O)N(C)C)cc(C(O)CNC(C)(C)C)c1 (stereo not drawn)")
688
>>> numeric_result("Cc1nnc(C2CCCN(C(=O)COc3ccccc3)C2)s1 (stereo not drawn)")
653
>>> numeric_result("CC1CCC(NC(=O)C2CCN(c3cnn(Cc4ccccc4)c(=O)c3)CC2)CC1 (stereo not drawn)")
841
>>> numeric_result("CCC(=O)N1CCCN(C2=NS(=O)(=O)C(c3ccccc3)=C2C)CC1")
694
>>> numeric_result("COc1ccc2c(c1)C1(CCN(S(=O)(=O)c3ccc(C)cc3)C1)C(=O)N2 (stereo not drawn)")
843
>>> numeric_result("Cc1ccc(C)c(N2CCN(C(=O)c3c(C)sc4ccn(C)c(=O)c34)CC2)c1")
946
>>> numeric_result("Cn1cc(-c2nc(C(=O)NCc3cccc(Cl)c3)cs2)c2cccnc21")
964
>>> numeric_result("CCOc1ccc(NC(=O)C2CCN(c3cncnc3N3CCOCC3)CC2)cc1")
651
>>> numeric_result("N#Cc1ccc(-c2nc(-c3ccc4c(c3)ncn4CCN3CCCC3)no2)cc1")
638
>>> numeric_result("O=C(c1ccccc1Br)N1CCN(c2cc(-c3ccc(Cl)cc3)[nH]n2)CC1")
913
>>> numeric_result("CCCCNC(=O)Cc1nnc(-c2ccc(OC)cc2)o1")
736
>>> numeric_result("Cn1c(N2CCC(C(=O)N3CCN(c4ccc(F)cc4)CC3)CC2)cc(=O)n(C)c1=O")
704
>>> numeric_result("COc1ccc2cc(C(=O)N3CCN(c4cc(=O)n(C)c(=O)n4C)CC3)[nH]c2c1")
673
>>> numeric_result("CN1CCN(CCCNC(=O)CCC(=O)N2CCCn3nc(-c4cn(C)c5ccccc45)cc32)CC1")
583
>>> numeric_result("Cc1noc(CNC(=O)C2CCN(C(=O)NCc3ccc(F)cc3)CC2)n1")
615
>>> numeric_result("CCn1c(=O)c2c(cc(C)n2C)n(CC(=O)Nc2cc(Cl)ccc2C)c1=O")
810
>>> numeric_result("CCn1nccc1C(=O)N1CCC(n2c(-c3ccsc3)nc3cccnc32)C1 (stereo not drawn)")
643
>>> numeric_result("CCCCn1cc(S(=O)(=O)Nc2ccc(C)cc2)c2cccnc21")
943
>>> numeric_result("CC(=O)N1c2ccc(S(=O)(=O)N3CCCCC3)cc2CC1C(=O)Nc1cc(C)ccc1C (stereo not drawn)")
912
>>> numeric_result("Clc1ccc(Sc2c(-c3ccccc3)nc3ncccn23)cc1")
1030
>>> numeric_result("Cc1ccc(N2CC(c3nc(-c4ccc5c(c4)OCO5)no3)CC2=O)cc1C (stereo not drawn)")
911
>>> numeric_result("CN1C(=O)C(C)(C(=O)NCc2ccc(Br)cc2)Oc2cccnc21 (stereo not drawn)")
837
>>> numeric_result("O=C(CCc1ccc2[nH]ccc2c1)NCc1ccc(F)cc1")
793

src = the METLIN SMRT retention time set (Domingo-Almenara et al. 2019)
